From: PubChem BioAssay (NCATS)

Could you please report measured max response for the items listed next?
biological target: Retinoic acid receptor RXR-alpha (Homo sapiens); test: qHTS assay for small molecule antagonists of retinoid X receptor alpha signaling (AID 588546); conditions: HEK293T RXRa-UAS-bla, beta-lactamase ratio, antagonist mode;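 also: cells stimulated with 9-cis-retinoic acid as agonist; % is scaled to controls: 0 for no effect and ±100 for the full control effect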
Inconclusive results are not listed.
Answers are plain numbers, in %.

Worked examples follow.
COC(C)(C)C = 6.43
O=[N+]([O-])c1cccc2c([N+](=O)[O-])cccc12 = 7.28
Cc1ccc(N)c(C)c1 = -1.52
CCN(CC)CCO = 35.6

Hi, could you look up max response for each item in my list?
1. O=[N+]([O-])c1cc(Cl)c(Cl)cc1Cl
2. Cc1ccc([N+](=O)[O-])cc1
3. ClCCBr

Solution:
[7.08, 4.07, -1.05]

Parameters: items (list). Returns: max response for each item.
1. CC(Cl)CCl (stereo not given)
2. O=C(O)C(Br)Br
3. c1ccc(C2CO2)cc1 (stereo not given)
4. Clc1ccccc1
5. CN(C)c1ccc(N=Nc2ccccc2)cc1
6. ClC(Cl)(Cl)C(Cl)(Cl)Cl

Solution:
-6.12
6.61
32.3
-2.2
-20.4
8.66

Provide max response values for the following items, in order.
1. CN(C)c1ccc(N)cc1
2. CC(C)[N+](=O)[O-]
3. CN=C=O
4. Nc1ccccc1-c1ccccc1
5. Cl/C=C\Cl
6. C=CCc1cc(OC)c2c(c1)OCO2
7. CCC/C=N/O
8. OCCOCCO

Solution:
[-17.1, 14.3, 0.777, -19.9, -5.23, 9.86, -0.259, 1.12]

Please give max response for each item listed below.
1. Clc1cccc2ccccc12
2. O=Cc1ccc(Cl)cc1Cl
3. C=CCOCC1CO1 (stereo not given)
4. CC(C)(Cl)Cl
5. CC1CC(=O)O1 (stereo not given)

Solution:
1. -3.67
2. 2.38
3. 9.76
4. 3.57
5. 4.5

// input: 4 molecules below; output: max response for each
1. CC(C)OC(=O)Cc1ccccc1
2. N#C/C(N)=C(/N)C#N
3. Nn1cnnc1
4. CCOC(=O)C1OC1(C)c1ccccc1 (stereo not given)

Solution:
[8.61, 2, 24.4, -0.211]
